Test system: L1210
test.protocol: Antitumor activity in the mice with intraperitoneal implanted L1210 lymphoid leukemia at the dose 25 mg/kg/day x 5 was determined as percentage increase in the life span as compared with control tumor bearers
Type: functional
measurement.context: Mus musculus, L1210, ip
Respond with Met for ILS at 25 mg/kg/day values of 80% and above, Not met for values below.

Is ILS at 25 mg/kg/day for C[C@]12CC[C@H]3[C@@H](CCC4=CC(=O)CC[C@@]43C)[C@@H]1CC[C@@H]2C(=O)COP(=O)(O)OC[C@H]1O[C@@H](n2ccc(N)nc2=O)[C@@H](O)[C@@H]1O at or above 80%? Met

Is ILS at 25 mg/kg/day for C[C@]12CCC(=O)C=C1CC[C@H]1[C@@H]3CC[C@](O)(C(=O)COP(=O)(O)OC[C@H]4O[C@@H](n5ccc(N)nc5=O)[C@@H](O)[C@@H]4O)[C@@]3(C)C[C@H](O)[C@@]12F at or above 80%? Not met

Is ILS at 25 mg/kg/day for C[C@]12C[C@H](O)[C@H]3[C@@H](CCC4=CC(=O)CC[C@@]43C)[C@@H]1CC[C@@H]2C(=O)COP(=O)(O)OC[C@H]1O[C@@H](n2ccc(N)nc2=O)[C@@H](O)[C@@H]1O at or above 80%? Met

Is ILS at 25 mg/kg/day for C[C@]12CCC(=O)C=C1CC[C@@H]1[C@@H]2CC[C@@]2(C)[C@H]1CC[C@]2(O)C(=O)COP(=O)(O)OC[C@H]1O[C@@H](n2ccc(N)nc2=O)[C@@H](O)[C@@H]1O at or above 80%? Met

Is ILS at 25 mg/kg/day for Nc1ccn([C@@H]2O[C@H](CO)[C@@H](O)[C@@H]2O)c(=O)n1 [CYTARABINE] at or above 80%? Not met

Is ILS at 25 mg/kg/day for C[C@H]1C[C@@H]2[C@H]([C@@H](O)C[C@@]3(C)[C@H]2CC[C@]3(O)C(=O)COP(=O)(O)OC[C@H]2O[C@@H](n3ccc(N)nc3=O)[C@@H](O)[C@@H]2O)[C@@]2(C)C=CC(=O)C=C12 at or above 80%? Met

Is ILS at 25 mg/kg/day for C[C@@H]1C[C@H]2[C@@H]3CCC4=CC(=O)C=C[C@]4(C)[C@@]3(F)[C@@H](O)C[C@]2(C)[C@@]1(O)C(=O)COP(=O)(O)OC[C@H]1O[C@@H](n2ccc(N)nc2=O)[C@@H](O)[C@@H]1O at or above 80%? Not met

====

Tested on: L1210
test.protocol: Antitumor activity in the mice with intraperitoneal implanted L1210 lymphoid leukemia at the dose 75 mg/kg/day x 5 was determined as percentage increase in the life span as compared with control tumor bearers
Assay type: functional
measurement.context: Mus musculus, L1210, ip
Respond with TRUE for ILS at 75 mg/kg/day values of 90% and above, FALSE for values below.

Is ILS at 75 mg/kg/day for C[C@]12CC[C@H]3[C@@H](CCC4=CC(=O)CC[C@@]43C)[C@@H]1CC[C@@H]2C(=O)COP(=O)(O)OC[C@H]1O[C@@H](n2ccc(N)nc2=O)[C@@H](O)[C@@H]1O at or above 90%? TRUE

Is ILS at 75 mg/kg/day for C[C@]12CCC(=O)C=C1CC[C@H]1[C@@H]3CC[C@](O)(C(=O)COP(=O)(O)OC[C@H]4O[C@@H](n5ccc(N)nc5=O)[C@@H](O)[C@@H]4O)[C@@]3(C)C[C@H](O)[C@@]12F at or above 90%? FALSE

Is ILS at 75 mg/kg/day for C[C@]12CCC(=O)C=C1CC[C@@H]1[C@@H]2CC[C@@]2(C)[C@H]1CC[C@]2(O)C(=O)COP(=O)(O)OC[C@H]1O[C@@H](n2ccc(N)nc2=O)[C@@H](O)[C@@H]1O at or above 90%? TRUE

Is ILS at 75 mg/kg/day for C[C@]12C[C@H](O)[C@H]3[C@@H](CCC4=CC(=O)CC[C@@]43C)[C@@H]1CC[C@@H]2C(=O)COP(=O)(O)OC[C@H]1O[C@@H](n2ccc(N)nc2=O)[C@@H](O)[C@@H]1O at or above 90%? TRUE

meta.source: ChEMBL document CHEMBL1121364
